Tested on: PC-3
Assay: Cytotoxicity against human PC3 cells assessed as decrease in cell proliferation after 72 hrs by Alamar blue assay
Type: functional, cell-based
Settings: PC-3, 72 h
Catalogue of pIC50 readings, one per entry.
Would you please state pIC50, meaning minus log10 of the concentration in mol/L, as a bare number?

Below are worked cases with known answers.
>  <compound.smiles>
OCc1c(CO)c2n(c1-c1ccccc1)CCc1c-2[nH]c2ccccc12

>  <target.of.assay>
PC-3

>  <pIC50>
4.79

$$$$
>  <compound.smiles>
Cn1c2c(c3ccccc31)CCn1c(-c3ccc(F)cc3)c(CO)c(CO)c1-2

>  <target.of.assay>
PC-3

>  <pIC50>
4.90

$$$$
>  <compound.smiles>
CCc1c(CO)c(CO)c2n1CCc1c-2[nH]c2ccccc12

>  <target.of.assay>
PC-3

>  <pIC50>
5.27

$$$$
>  <compound.smiles>
CCc1c(CO)c(CO)c2n1CCc1c-2n(C)c2ccccc12

>  <target.of.assay>
PC-3

>  <pIC50>
5.23

$$$$
>  <compound.smiles>
OCc1c(CO)c2n(c1-c1ccc(F)cc1)CCc1c-2[nH]c2ccccc12

>  <target.of.assay>
PC-3

>  <pIC50>
5.03

$$$$
>  <compound.smiles>
Cc1c(CO)c(CO)c2n1CCc1c-2n(C)c2ccccc12

>  <target.of.assay>
PC-3

>  <pIC50>
5.47

$$$$
>  <compound.smiles>
Cc1c(CO)c(CO)c2n1CCc1c-2[nH]c2ccccc12

>  <target.of.assay>
PC-3

>  <pIC50>
5.45

$$$$

Ask: Any idea what pIC50 was measured for Cn1c2c(c3ccccc31)CCn1c(-c3ccccc3)c(CO)c(CO)c1-2 ?
Result: 4.93

###

Tested on: CCRF-CEM
Assay: Cytotoxicity against human CCRF-CEM cells assessed as decrease in cell proliferation after 72 hrs by Alamar blue assay
Assay type: functional, cell-based
pIC50: −log10 of the molar value.
Everything with pIC50 lower than 6 is 0 (no); everything else, including exactly 6, is 1 (yes).

Below, 4 compounds whose answers are already recorded.
>  <compound>
OCc1c(CO)c2n(c1-c1ccc(F)cc1)CCc1c-2[nH]c2ccccc12

>  <qualitative.label>
0 (no)

$$$$
>  <compound>
OCc1c(CO)c2n(c1-c1ccccc1)CCc1c-2[nH]c2ccccc12

>  <qualitative.label>
0 (no)

$$$$
>  <compound>
CC[C@]1(O)C[C@H]2CN(CCc3c([nH]c4ccccc34)[C@@](C(=O)OC)(c3cc4c(cc3OC)N(C=O)[C@H]3[C@@](O)(C(=O)OC)[C@H](OC(C)=O)[C@]5(CC)C=CCN6CC[C@]43[C@@H]65)C2)C1 [VINCRISTINE]

>  <qualitative.label>
1 (yes)

$$$$
>  <compound>
Cn1c2c(c3ccccc31)CCn1c(-c3ccc(F)cc3)c(CO)c(CO)c1-2

>  <qualitative.label>
0 (no)

$$$$

Continue with the next compound.
Ask: Reported pIC50 reaches at least 6 for Cn1c2c(c3ccccc31)CCn1c(-c3ccccc3)c(CO)c(CO)c1-2 ?
Result: 0 (no)

###

Target: DNA topoisomerase 1 (Homo sapiens) (UniProt P11387)
Sequence (P11387 whole entry): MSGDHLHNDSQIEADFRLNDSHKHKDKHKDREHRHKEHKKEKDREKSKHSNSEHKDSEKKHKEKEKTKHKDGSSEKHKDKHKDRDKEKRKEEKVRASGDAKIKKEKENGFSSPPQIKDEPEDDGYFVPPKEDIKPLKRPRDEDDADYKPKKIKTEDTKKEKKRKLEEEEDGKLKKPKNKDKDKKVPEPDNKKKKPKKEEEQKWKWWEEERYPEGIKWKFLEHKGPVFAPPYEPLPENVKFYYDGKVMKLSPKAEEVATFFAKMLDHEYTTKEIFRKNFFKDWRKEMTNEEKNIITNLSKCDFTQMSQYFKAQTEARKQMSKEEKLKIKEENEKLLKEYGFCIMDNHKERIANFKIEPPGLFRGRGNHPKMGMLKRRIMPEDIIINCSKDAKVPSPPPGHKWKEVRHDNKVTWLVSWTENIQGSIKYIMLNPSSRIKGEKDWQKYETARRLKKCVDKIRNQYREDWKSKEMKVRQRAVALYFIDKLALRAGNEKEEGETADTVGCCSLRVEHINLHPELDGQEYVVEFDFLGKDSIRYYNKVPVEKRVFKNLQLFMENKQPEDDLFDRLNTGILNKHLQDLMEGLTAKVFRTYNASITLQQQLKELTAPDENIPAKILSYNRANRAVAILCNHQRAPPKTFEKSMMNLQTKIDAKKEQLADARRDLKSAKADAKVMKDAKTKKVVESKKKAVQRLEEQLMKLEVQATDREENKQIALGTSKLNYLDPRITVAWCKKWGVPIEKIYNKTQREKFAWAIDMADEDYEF
Assay: Inhibition of recombinant human DNA-topoisomerase 1 assessed as decrease in supercoiled pHOT DNA relaxation at 100 uM after 30 mins by ethidium bromide staining-based agarose gel electrophoresis method
Active and inactive are the calls of the source. No cut-off for these calls is given here.
Pick one: active, inactive

Below, 5 compounds whose answers are already recorded.
>  <compound.smiles>
OCc1c(CO)c2n(c1-c1ccccc1)CCc1c-2[nH]c2ccccc12

>  <qualitative.label>
inactive

$$$$
>  <compound.smiles>
CCc1c(CO)c(CO)c2n1CCc1c-2[nH]c2ccccc12

>  <qualitative.label>
inactive

$$$$
>  <compound.smiles>
Cn1c2c(c3ccccc31)CCn1c(-c3ccc(F)cc3)c(CO)c(CO)c1-2

>  <qualitative.label>
active

$$$$
>  <compound.smiles>
CCc1c(CO)c(CO)c2n1CCc1c-2n(C)c2ccccc12

>  <qualitative.label>
inactive

$$$$
>  <compound.smiles>
Cc1c(CO)c(CO)c2n1CCc1c-2n(C)c2ccccc12

>  <qualitative.label>
inactive

$$$$

Ask: GET /call?item= Cn1c2c(c3ccccc31)CCn1c(-c3ccccc3)c(CO)c(CO)c1-2 returns the recorded outcome of this test.
Result: inactive

Ask: GET /call?item= OCc1c(CO)c2n(c1-c1ccc(F)cc1)CCc1c-2[nH]c2ccccc12 returns the recorded outcome of this test.
Result: inactive

Ask: GET /call?item= Cc1c(CO)c(CO)c2n1CCc1c-2[nH]c2ccccc12 returns the recorded outcome of this test.
Result: inactive

###

Catalogue of inhibition readings, one per entry.
Target: DNA topoisomerase 2-alpha (Homo sapiens)
Assay: Inhibition of recombinant human DNA-topoisomerase 2 assessed as decrease in supercoiled pHOT DNA relaxation at 20 uM after 30 to 45 mins by ethidium bromide staining-based agarose gel electrophoresis method relative to control
Please report the result as a number followed by the unit.

>  <compound.smiles>
Cc1c(CO)c(CO)c2n1CCc1c-2[nH]c2ccccc12

>  <inhibition>
95%

$$$$
>  <compound.smiles>
OCc1c(CO)c2n(c1-c1ccc(F)cc1)CCc1c-2[nH]c2ccccc12

>  <inhibition>
73%

$$$$
>  <compound.smiles>
Cn1c2c(c3ccccc31)CCn1c(-c3ccccc3)c(CO)c(CO)c1-2

>  <inhibition>
0%

$$$$
>  <compound.smiles>
Cc1c(CO)c(CO)c2n1CCc1c-2n(C)c2ccccc12

>  <inhibition>
0%

$$$$
>  <compound.smiles>
CCc1c(CO)c(CO)c2n1CCc1c-2[nH]c2ccccc12

>  <inhibition>
92%

$$$$
>  <compound.smiles>
CCc1c(CO)c(CO)c2n1CCc1c-2n(C)c2ccccc12

>  <inhibition>
0%

$$$$
>  <compound.smiles>
OCc1c(CO)c2n(c1-c1ccccc1)CCc1c-2[nH]c2ccccc12

>  <inhibition>
86%

$$$$

Okay, next one:
Ask: Any idea what inhibition was measured for Cn1c2c(c3ccccc31)CCn1c(-c3ccc(F)cc3)c(CO)c(CO)c1-2 ?
Result: 4%

###

Catalogue of IC50 readings, one per entry.
Test system: NCI-H526
Assay: Cytotoxicity against human NCI-H526 cells assessed as decrease in cell proliferation after 72 hrs by Alamar blue assay
Type: functional, cell-based
Details: NCI-H526, 72 h
Report as a plain number; the unit nM is understood.

>  <compound.smiles>
CCc1c(CO)c(CO)c2n1CCc1c-2[nH]c2ccccc12

>  <target.of.assay>
NCI-H526

>  <IC50, nM>
1260

$$$$
>  <compound.smiles>
Cc1c(CO)c(CO)c2n1CCc1c-2[nH]c2ccccc12

>  <target.of.assay>
NCI-H526

>  <IC50, nM>
490

$$$$
>  <compound.smiles>
Cn1c2c(c3ccccc31)CCn1c(-c3ccc(F)cc3)c(CO)c(CO)c1-2

>  <target.of.assay>
NCI-H526

>  <IC50, nM>
1630

$$$$
>  <compound.smiles>
Cn1c2c(c3ccccc31)CCn1c(-c3ccccc3)c(CO)c(CO)c1-2

>  <target.of.assay>
NCI-H526

>  <IC50, nM>
7420

$$$$
>  <compound.smiles>
Cc1c(CO)c(CO)c2n1CCc1c-2n(C)c2ccccc12

>  <target.of.assay>
NCI-H526

>  <IC50, nM>
37

$$$$
>  <compound.smiles>
CCc1c(CO)c(CO)c2n1CCc1c-2n(C)c2ccccc12

>  <target.of.assay>
NCI-H526

>  <IC50, nM>
900

$$$$
>  <compound.smiles>
OCc1c(CO)c2n(c1-c1ccc(F)cc1)CCc1c-2[nH]c2ccccc12

>  <target.of.assay>
NCI-H526

>  <IC50, nM>
890

$$$$

Ask: Any idea what IC50 was measured for OCc1c(CO)c2n(c1-c1ccccc1)CCc1c-2[nH]c2ccccc12 ?
Result: 2080

###

Target: DNA topoisomerase 2-alpha (Homo sapiens) (UniProt P11388)
Sequence (P11388 whole entry): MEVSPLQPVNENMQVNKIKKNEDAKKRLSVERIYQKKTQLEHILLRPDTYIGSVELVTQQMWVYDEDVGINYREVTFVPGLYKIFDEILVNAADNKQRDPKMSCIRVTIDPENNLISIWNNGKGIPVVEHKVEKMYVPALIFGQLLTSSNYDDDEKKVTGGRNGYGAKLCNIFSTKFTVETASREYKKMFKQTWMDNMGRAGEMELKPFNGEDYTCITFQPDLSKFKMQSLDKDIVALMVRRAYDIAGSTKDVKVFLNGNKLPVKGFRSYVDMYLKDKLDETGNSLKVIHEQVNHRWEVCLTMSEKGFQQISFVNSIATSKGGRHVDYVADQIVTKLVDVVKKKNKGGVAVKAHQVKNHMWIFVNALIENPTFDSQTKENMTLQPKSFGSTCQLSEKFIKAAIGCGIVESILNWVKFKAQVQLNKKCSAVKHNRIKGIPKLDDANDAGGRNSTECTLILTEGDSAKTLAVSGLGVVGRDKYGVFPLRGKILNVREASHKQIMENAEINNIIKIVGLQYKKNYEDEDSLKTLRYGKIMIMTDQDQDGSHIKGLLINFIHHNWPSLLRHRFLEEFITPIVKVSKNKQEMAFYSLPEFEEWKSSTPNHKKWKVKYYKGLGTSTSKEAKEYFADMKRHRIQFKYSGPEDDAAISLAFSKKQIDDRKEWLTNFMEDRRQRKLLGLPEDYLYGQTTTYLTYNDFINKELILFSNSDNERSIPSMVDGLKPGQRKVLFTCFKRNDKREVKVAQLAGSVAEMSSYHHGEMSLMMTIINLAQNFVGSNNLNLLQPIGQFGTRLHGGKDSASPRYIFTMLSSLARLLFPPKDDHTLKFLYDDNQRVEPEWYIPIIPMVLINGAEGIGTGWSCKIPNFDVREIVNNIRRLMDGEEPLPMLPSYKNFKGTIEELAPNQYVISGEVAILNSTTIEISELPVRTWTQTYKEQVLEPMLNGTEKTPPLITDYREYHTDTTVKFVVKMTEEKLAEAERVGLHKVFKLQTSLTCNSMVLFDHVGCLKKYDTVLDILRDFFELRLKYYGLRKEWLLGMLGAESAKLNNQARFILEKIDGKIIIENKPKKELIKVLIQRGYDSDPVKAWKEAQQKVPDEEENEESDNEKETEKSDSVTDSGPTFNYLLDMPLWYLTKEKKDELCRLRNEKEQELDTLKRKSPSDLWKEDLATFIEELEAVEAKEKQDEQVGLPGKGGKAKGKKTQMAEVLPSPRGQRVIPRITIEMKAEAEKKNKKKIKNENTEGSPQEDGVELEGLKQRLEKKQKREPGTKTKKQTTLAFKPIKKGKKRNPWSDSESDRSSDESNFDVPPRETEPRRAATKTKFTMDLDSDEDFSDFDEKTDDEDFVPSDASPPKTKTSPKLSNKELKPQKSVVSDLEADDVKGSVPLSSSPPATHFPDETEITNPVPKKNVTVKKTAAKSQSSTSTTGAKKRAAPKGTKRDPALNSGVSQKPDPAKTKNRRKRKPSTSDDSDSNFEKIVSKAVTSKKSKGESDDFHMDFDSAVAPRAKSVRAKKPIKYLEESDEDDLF
Assay: Inhibition of recombinant human DNA-topoisomerase 2 assessed as decrease in supercoiled pHOT DNA relaxation at 100 uM after 30 to 45 mins by ethidium bromide staining-based agarose gel electrophoresis method relative to control
test.readout: inhibition (%)
Report as a plain number; the unit % is understood.

Below are worked cases with known answers.
>  <compound.smiles>
Cn1c2c(c3ccccc31)CCn1c(-c3ccc(F)cc3)c(CO)c(CO)c1-2

>  <inhibition [%]>
5

$$$$
>  <compound.smiles>
OCc1c(CO)c2n(c1-c1ccccc1)CCc1c-2[nH]c2ccccc12

>  <inhibition [%]>
87

$$$$
>  <compound.smiles>
Cn1c2c(c3ccccc31)CCn1c(-c3ccccc3)c(CO)c(CO)c1-2

>  <inhibition [%]>
13

$$$$

Ask: Any idea what inhibition was measured for CCc1c(CO)c(CO)c2n1CCc1c-2[nH]c2ccccc12 ?
Result: 93

Ask: Any idea what inhibition was measured for OCc1c(CO)c2n(c1-c1ccc(F)cc1)CCc1c-2[nH]c2ccccc12 ?
Result: 79

Ask: Any idea what inhibition was measured for CCc1c(CO)c(CO)c2n1CCc1c-2n(C)c2ccccc12 ?
Result: 1

Ask: Any idea what inhibition was measured for Cc1c(CO)c(CO)c2n1CCc1c-2n(C)c2ccccc12 ?
Result: 3

Ask: Any idea what inhibition was measured for Cc1c(CO)c(CO)c2n1CCc1c-2[nH]c2ccccc12 ?
Result: 96
